- System: MPanc96 (Mut) pancreatic tumor cells
- assay notes: CyQUANT proliferation assay
- Type: cell-based
- reported conditions: MPANC96; Table 11, pancreatic; read-out: IC50 (μM) MPanc96 (Mut)
- Procedure: Madine Darby Canine Kidney epithelial cells (MDCK) stably co-expressing mGFP-tagged full length oncogenic mutant K-Ras (GFP—K-RASG12V) or mGFP-LactC2 (peptide probe for phosphatidylserine) and mCherry-tagged to the amino acids 179-189 of H-RasC181S, C184S (mCherry-CAAX, localizes primarily to endomembranes) were grown in DMEM-high glucose/sodium pyruvate/10% FBS. […] Cells were seeded in 96-well plates. […] Fluorescence measurement was used as a measure of live cell number.
reported metric: IC50
// return the numeric value with its unit appended

[[record]]
compound = "CC(NCCC(c1ccccc1)c1ccccc1)c1ccccc1 (stereo not shown)"
reported_metric = "IC50"
val = "10.8 µM"

[[record]]
compound = "COc1ccc([C@@H](C)N(CC=C(c2ccccc2)c2ccccc2)CCN2CCN(C)CC2)cc1"
reported_metric = "IC50"
val = "4.2 µM"

[[record]]
compound = "COc1ccc([C@@H](C)N(CC=C(c2ccccc2)c2ccccc2)CCN2CCCC2)cc1"
reported_metric = "IC50"
val = "3.8 µM"


Here's the next entry for you.
query: Look up IC50 of `COc1ccc([C@@H](C)N(CC=C(c2ccccc2)c2ccccc2)CCCN2CCN(C)CC2)cc1` and report it.
result: 4.2 µM
